assay: BSK_hDFCGF_Proliferation: Cell Proliferation Assessment in the BioMAP Diversity Plus: hDFCGF Assay (AID 2283059); conditions: primary human foreskin fibroblasts;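 also: curves fitted for both rise and fall of signal versus DMSO baseline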
Activity calls are given as the source filed them. The calls were made as follows: active = hit-call score of the fitted dose curve at least 0.9, where 1 is the maximum; inactive = score below 0.9.
Your reply should match one of these outcome classes. 1.0 for active, 0.0 for inactive

A selection of reference data follows.
CCCCCCCCCCCC(C)=O    1.0
CCCCCCCCC(CO)CCCCCC (centres undefined)    1.0
CCCC(C)C(=O)OCC (centres undefined)    0.0
Oc1ccc(/C=C/c2cc(O)cc(O)c2)cc1    1.0
Clc1cc(Cl)c(Cl)c(Cl)c1Cl    0.0
CC(C)[N+](C)(CCOC(=O)C1c2ccccc2Oc2ccccc21)C(C)C    1.0

Hello, I am checking results. What call was entered for `O=C1CCCCCCCCCCC1` ?
0.0

Hello, I am checking results. What call was entered for `c1ccc2c(c1)[nH]c1ccccc12` ?
0.0

Hello, I am checking results. What call was entered for `CCCCCCOC(=O)CCCCC(=O)OCCCCCC` ?
0.0
